System: TO-N3-2 (biotin conjugate)
assay.info: pull-down binding Z-score (relative to library population); higher = stronger binding
condition: RNA library: Library-2
attribute.measured: pull-down binding Z-score
One number for each entry.

entry.sequence | pull-down binding Z-score
UCUCUAUGACAAACUUGUUUCAAGCUUUUUGGAAAUGAAGAGUGAAAAGCAAGUUGAACAAAAGAUCGCUGAGA [SHAPE_invitro_SARS-CoV-2_Motif_69] | 0.388

Respectfully, I request pull-down binding Z-score for each entry included below.
1. GUAAUGAUCCAUUUUUGGGUGUUUAUUAC [DMSMaPseq_invitro_SARS-CoV-2_Motif_387]
2. AGCCAAAAUCACCAGGGA [hsa-mir-4534]
3. GGCUAUGGUUUCCAGAGCC [IAV_invivo_PB1_2_Motif_37+IAV_invivo_PB1_2_Motif_37]
4. GUGCUAAGCAC
5. GAUGUAGAAUUGUUUGAAAAUAAAACAACAUU

1: -0.998; 2: 0.563; 3: -0.356; 4: -1.24; 5: -0.444

Respectfully, I request pull-down binding Z-score for each entry included below.
1. AUGAACCACAAAUCAU [DMSMaPseq_invitro_SARS-CoV-2_Motif_444]
2. UGGGUGGAUCCUCUAUUUCCUUACGUGGGCCACUGG [hsa-mir-432]
3. GGUUGGGGUGGGCUGCCUGUGGACCAAUC [hsa-mir-4525]
4. GGUUUGCGCCUCAAGAAACC [hsa-mir-1255b-2]

-1.03
0.845
1.94
0.521
